experimental-system: UniProtKB P18901
Sequence (P18901 whole entry): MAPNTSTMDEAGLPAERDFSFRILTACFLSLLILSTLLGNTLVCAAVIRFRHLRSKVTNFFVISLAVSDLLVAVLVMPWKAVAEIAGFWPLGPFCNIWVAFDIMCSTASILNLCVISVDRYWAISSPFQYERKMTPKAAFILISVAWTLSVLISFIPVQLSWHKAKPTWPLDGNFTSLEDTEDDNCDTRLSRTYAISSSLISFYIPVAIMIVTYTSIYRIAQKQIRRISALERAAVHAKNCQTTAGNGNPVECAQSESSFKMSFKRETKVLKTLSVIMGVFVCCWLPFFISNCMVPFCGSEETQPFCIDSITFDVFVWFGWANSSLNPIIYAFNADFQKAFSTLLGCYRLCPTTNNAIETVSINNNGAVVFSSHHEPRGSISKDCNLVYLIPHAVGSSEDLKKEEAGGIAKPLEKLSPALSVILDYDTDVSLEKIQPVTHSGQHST
Response field label: string, one of y (Ki strictly below 1 µM) or n.

# compound, experimental-system, class-name
rows = [
    ("c1ccc2c(c1)Nc1ccccc1S2", "UniProtKB P18901", "n"),
    ("O=c1[nH]c2ccccc2n1CCCN1CCC(n2c(=O)[nH]c3cc(Cl)ccc32)CC1", "UniProtKB P18901", "n"),
    ("NC1CCc2cc(O)c(O)cc2C1 (stereo not drawn)", "UniProtKB P18901", "n"),
    ("OCCN1CCN(CCCN2c3ccccc3Sc3ccc(Cl)cc32)CC1", "UniProtKB P18901", "y"),
    ("NCCc1c[nH]c2ccc(O)cc12 [[3H]-5-HT]", "UniProtKB P18901", "n"),
    ("OCCN1CCN(CCCN2c3ccccc3Sc3ccc(C(F)(F)F)cc32)CC1", "UniProtKB P18901", "y"),
    ("O=C(c1ccc(F)cc1)C1CCN(CCn2c(=O)[nH]c3ccccc3c2=O)CC1", "UniProtKB P18901", "y"),
    ("O=c1[nH]c2ccccc2n1C1CCN(CCCC(c2ccc(F)cc2)c2ccc(F)cc2)CC1", "UniProtKB P18901", "n"),
]
